molecular target: T1, Biotinylated human TSLP (human, biotinylated); assay: SPR, biotinylated hTSLP on streptavidin chip; Example 11, Ac-(SEQ ID NO: 9)
T1 construct: also called hTSLP; thymic stromal lymphopoietin
T1 sequence (chain, as listed by the source limits assumed): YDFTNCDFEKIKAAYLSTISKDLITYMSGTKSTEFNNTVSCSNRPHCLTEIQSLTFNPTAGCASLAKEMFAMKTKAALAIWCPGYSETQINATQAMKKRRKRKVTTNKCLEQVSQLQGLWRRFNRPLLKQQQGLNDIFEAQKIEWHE
pKd: −log10 of the molar value.
recorded-metric: pKd

> print(dat)
                                     binder  reading
1  CQWLEDCWRGXC (not fully specified; N-term acetyl; CQWLEDCWRG[3,4diClPhe]C as printed; 3 Cys on TATA) [Example 11]     8.24
